metric: melting point

Example entries and their recorded answers appear below.
> print(dat)
                                   compound  value.reported
1  O=C(O)C1CCCN1C(=O)c1ccc2ccccc2c1O (centres undefined)   197 to 199 °C
2                O=C(NCc1ccccc1)c1cccc(O)c1   140 to 142 °C
3                 CCOC(=O)Cn1nc(C)c(C=O)c1C     79 to 81 °C

Query block: Can you look up the measured melting point of COC(=O)c1ccc2ccccc2n1 for me?
Result block: 83 to 85 °C

* * *

metric: melting point

Example entries and their recorded answers appear below.
> print(dat)
                                   compound  value.reported
1                N#Cc1ccc([N+](=O)[O-])cc1F     69 to 71 °C
2         CS(=O)(=O)c1ccc(F)c(S(C)(=O)=O)c1   196 to 198 °C
3                      Clc1ccc(Br)c2ccccc12     62 to 64 °C
4  CC(Oc1ccccc1C(F)(F)F)C(=O)O (centres undefined)   145 to 147 °C
5               CCOC(=O)c1ccc(NC(=O)CCl)cc1     38 to 40 °C
6  CC(NC(N)=S)c1ccc(Cl)cc1Cl (centres undefined)   164 to 166 °C
7             Cc1ccc(OCc2nc(CC(=O)O)cs2)cc1   145 to 147 °C
8               COc1ccccc1OCc1ccc(C(=O)O)o1   183 to 185 °C

Query block: Can you look up the measured melting point of CC1(c2cccnc2)NC(=O)NC1=O (centres undefined) for me?
Result block: 144 to 146 °C

Query block: Can you look up the measured melting point of O=C(O)C1(Br)CCCCC1 for me?
Result block: 57 to 59 °C

Query block: Can you look up the measured melting point of CCn1c(C)c(C(=O)O)c2cc(OC)ccc21 for me?
Result block: 173 to 175 °C

Query block: Can you look up the measured melting point of O=C(O)c1ccc(N2CCCS2(=O)=O)cc1Cl for me?
Result block: 226 to 228 °C

Query block: Can you look up the measured melting point of O=[N+]([O-])c1cc(Cl)cc(Cl)c1S(=O)(=O)Cl for me?
Result block: 218 to 221 °C

Query block: Can you look up the measured melting point of O=C(O)CC1CCOc2ccccc21 (centres undefined) for me?
Result block: 89 to 91 °C

Query block: Can you look up the measured melting point of COC(=O)c1c[nH]c(C)n1 for me?
Result block: 136 to 138 °C

Query block: Can you look up the measured melting point of CCOC(=O)c1c(N)sc(C(=O)NC)c1C for me?
Result block: 151 to 153 °C

* * *

metric: melting point

Example entries and their recorded answers appear below.
> print(dat)
                                   molecule  value.reported
1                    Nc1cc(F)c(Br)cc1C(=O)O   189 to 191 °C
2  CC(Cl)C(=O)Nc1ccc(F)c(F)c1F (centres undefined)   136 to 139 °C
3    COC(=O)C1CNC(=O)C1 (centres undefined)     58 to 60 °C
4        O=c1[nH]c2ccccc2c(O)c1[N+](=O)[O-]   209 to 211 °C

Query block: Can you look up the measured melting point of CCC1(CC)NC(=O)NC1=O for me?
Result block: 180 to 182 °C

Query block: Can you look up the measured melting point of Nc1ccc(Br)c2ccccc12 for me?
Result block: 102 to 104 °C

Query block: Can you look up the measured melting point of O=C(O)C1CC2CCC(C1)N2C1CC1 (centres undefined) for me?
Result block: 156 to 158 °C

Query block: Can you look up the measured melting point of NC(=O)c1cncs1 for me?
Result block: 194 to 196 °C

Query block: Can you look up the measured melting point of CN(C)c1ccc(C(=O)O)nn1 for me?
Result block: 167 to 169 °C

Query block: Can you look up the measured melting point of COC(=O)c1cc(S(=O)(=O)Cl)ccc1Br for me?
Result block: 89 to 91 °C

Query block: Can you look up the measured melting point of CC(Cl)c1nc2scc(-c3cccs3)c2c(=O)[nH]1 (centres undefined) for me?
Result block: 241 to 243 °C

Query block: Can you look up the measured melting point of CC(=O)Nc1scc(-c2cccs2)c1C(=O)O for me?
Result block: 227 to 229 °C

Query block: Can you look up the measured melting point of Cc1ccc(C2NCC(CCl)O2)cc1 (centres undefined) for me?
Result block: 60 to 64 °C

Query block: Can you look up the measured melting point of CSc1ccc(OCCCl)cc1 for me?
Result block: 63 to 65 °C
